Each entry below carries its reported IC50.
- SYSTEM_UNDER_TEST: AChE (Homo sapiens, UniProt P22303)
- Construct: purchased Bioassays System (BioAssay Systems) IACE-100
- Sequence (P22303 32-614): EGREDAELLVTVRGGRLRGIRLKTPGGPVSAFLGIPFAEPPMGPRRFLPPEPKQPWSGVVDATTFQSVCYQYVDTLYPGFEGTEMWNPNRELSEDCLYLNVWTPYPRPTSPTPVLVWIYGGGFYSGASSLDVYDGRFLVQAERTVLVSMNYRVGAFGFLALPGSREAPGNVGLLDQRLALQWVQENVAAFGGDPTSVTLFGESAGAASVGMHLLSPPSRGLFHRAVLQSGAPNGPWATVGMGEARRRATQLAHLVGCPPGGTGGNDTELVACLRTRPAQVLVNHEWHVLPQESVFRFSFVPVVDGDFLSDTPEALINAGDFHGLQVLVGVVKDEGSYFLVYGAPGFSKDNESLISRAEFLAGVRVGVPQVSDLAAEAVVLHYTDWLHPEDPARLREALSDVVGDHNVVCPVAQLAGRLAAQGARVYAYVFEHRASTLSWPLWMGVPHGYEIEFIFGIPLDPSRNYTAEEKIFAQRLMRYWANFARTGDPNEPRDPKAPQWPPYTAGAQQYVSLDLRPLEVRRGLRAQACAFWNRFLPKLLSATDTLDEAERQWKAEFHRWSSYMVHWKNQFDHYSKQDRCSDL
- ASSAY_OVERVIEW: In vitro AChE inhibition assay (improved Ellman spectrophotometric method)
- Format: biochemical
- EXPERIMENTAL_SETUP: read-out: AChE IC50 (nM) ± SD; average of triplicate determination; Ellman method, pH 7.5

[
  {
    "SMILES_REPR": "C[Si](C)(C)c1c([Si](C)(C)C)c(=P(c2ccccc2)(c2ccccc2)c2ccccc2)c1=O",
    "IC50 (nM)": 113
  },
  {
    "SMILES_REPR": "CCc1c(CC)c(=P(c2ccccc2)(c2ccccc2)c2ccccc2)c1=O",
    "IC50 (nM)": 249
  }
]
